I'd appreciate it if you could supply CC50 at 72 h values for the items below.
# test-summary: Cytotoxicity against human CEM cells after 72 hrs by coulter counter analysis
# Assay type: cell-based, CCRF-CEM
# protocol-conditions: human, CEM cells (CCRF-CEM)
One number for each entry, in µM.

molecule	unit	CC50 at 72 h
O=C(OCc1ccccc1)OC[C@H]1CC(O)C[C@@H]1OC(=O)OCc1ccccc1 (some centres not stated)	µM	110

Name the reported CC50 at 72 h value associated with the molecule `O=C(OCc1ccccc1)OC[C@H]1[C@H](O)CC[C@@H]1OC(=O)OCc1ccccc1`
94

---

# Test system: CCRF-CEM
# test-summary: Cytotoxicity against human CEM cells after 72 hrs by coulter counter analysis
# Format: cell-based
# protocol-conditions: human, ccrf-cem, 72 h
I'd appreciate it if you could supply CC50 values for the items below.

molecule	result
C[C@H](NP(=O)(Oc1ccccc1)OC1C[C@H](CO)[C@@H](O)C1)C(=O)OC(C)(C)C (mixture of isomers)	> 250 µM
C[C@H](NP(=O)(Oc1cccc2ccccc12)OC1C[C@H](CO)[C@@H](O)C1)C(=O)OC1CCCCC1 (mixture of isomers)	> 250 µM
COC(=O)[C@@H](NP(=O)(Oc1ccccc1)OC1C[C@H](CO)[C@@H](O)C1)C(C)C (mixture of isomers)	> 250 µM

Please give CC50 for each item listed below.
1. C[C@H](NP(=O)(Oc1ccccc1)OC1C[C@H](CO)[C@@H](O)C1)C(=O)OC1CCCCC1 (mixture of isomers)
2. OC[C@H]1[C@H](O)CC[C@@H]1O
3. OC[C@H]1CC(O)C[C@@H]1O (some centres not stated)
4. COC(=O)[C@H](C)NP(=O)(Oc1ccccc1)OC1C[C@H](CO)[C@@H](O)C1 (mixture of isomers)

> 250 µM
> 250 µM
> 250 µM
> 250 µM
